target: glycine binding site of the NMDA receptor (Rattus norvegicus, UniProt P35439); construct: rat brain membrane homogenates which are enriched in NMDA receptors; tissue Pel-Freez, Rogers, Ark; experiment: 1 μM glycine-stimulated [3H]-MK-801 binding, rat brain membrane homogenates; details: from binding assays (footnote d of Table 2)
readout-label: pKi
One number for each entry, as −log10 of the molar value.

IN: State measured pKi of the molecule O=c1cc(O)c(=O)[nH]c2c1C1CCC2C1 (stereo not shown) [Compound 70] with glycine binding site of the NMDA receptor (Rattus norvegicus, UniProt P35439).
OUT: 6.12

====

I'd appreciate it if you could supply pIC50 values for the items below.
molecular target: glycine binding site of the NMDA receptor (Rattus norvegicus, UniProt P35439); construct: rat brain membrane homogenates which are enriched in NMDA receptors; tissue Pel-Freez, Rogers, Ark; host or cells: whole rat brain, washed membrane homogenate; test: 1 μM glycine-stimulated [3H]-MK-801 binding, rat brain membrane homogenates; conditions: rat brain homogenates, [3H]-MK-801 binding, 1 μM glycine; read-out: IC50
One number for each entry, as −log10 of the molar value.

Recorded results for 4 compounds are shown here.
{"compound": "O=c1[nH]c2cc(C(F)(F)F)ccc2c(=O)cc1O", "target-of-assay": "glycine binding site of the NMDA receptor (Rattus norvegicus, UniProt P35439)", "numeric-value": 5.47}
{"compound": "Cc1cc(C)c2c(=O)cc(O)c(=O)[nH]c2c1", "target-of-assay": "glycine binding site of the NMDA receptor (Rattus norvegicus, UniProt P35439)", "numeric-value": 4.59}
{"compound": "O=c1[nH]c2cc(Br)ccc2c(=O)cc1O", "target-of-assay": "glycine binding site of the NMDA receptor (Rattus norvegicus, UniProt P35439)", "numeric-value": 5.89}
{"compound": "O=c1cc(O)c(=O)[nH]c2c1C1CCC2CC1", "target-of-assay": "glycine binding site of the NMDA receptor (Rattus norvegicus, UniProt P35439)", "numeric-value": 5.17}

Kindly give each listed record's pIC50.
1. O=c1[nH]c2ccccc2c(=O)cc1O [Compound 1, 3-hydroxy-1H-1-benzazepine-2,5-dione]
2. CC1Cc2[nH]c(=O)c(O)cc(=O)c2CC1C (stereo not shown)
3. O=c1[nH]c2ccc([N+](=O)[O-])cc2c(=O)cc1O
4. O=c1[nH]c2cc(F)ccc2c(=O)cc1O

OUT:
5.11
5.03
3.52
5.77

Kindly give each listed record's pIC50.
1. O=c1cc(O)c(=O)[nH]c2c1CCCC2
2. Cc1cc2[nH]c(=O)c(O)cc(=O)c2c(C)c1[N+](=O)[O-]

OUT:
[4.47, 4.16]

====

biological target: glycine binding site of the NMDA receptor (Rattus norvegicus); construct: rat brain membrane homogenates which are enriched in NMDA receptors; tissue Pel-Freez, Rogers, Ark; host or cells: whole rat brain, washed membrane homogenate; assay: 1 μM glycine-stimulated [3H]-MK-801 binding, rat brain membrane homogenates; conditions: rat brain homogenates, [3H]-MK-801 binding, 1 μM glycine; read-out: IC50
I'd appreciate it if you could supply pIC50 values for the items below.
One number for each entry, as −log10 of the molar value.

{"molecule": "Cc1ccc2c(=O)cc(O)c(=O)[nH]c2c1 [Compound 3]", "target-of-assay": "glycine binding site of the NMDA receptor (Rattus norvegicus)", "pIC50": 5.47}

Kindly give each listed record's pIC50.
1. Cc1cc2[nH]c(=O)c(O)cc(=O)c2cc1C [Compound 46]
2. O=c1cc(O)c(=O)[nH]c2c1C1CCC2C1 (centres unmarked) [Compound 70]
3. O=c1cc(O)c(=O)[nH]c2c1CC(Cl)C(Cl)C2 (centres unmarked) [Compound 74]
4. CC1c2c([nH]c(=O)c(O)cc2=O)CC(Cl)C1Cl (centres unmarked) [Compound 112]

OUT:
1: 5.14; 2: 5.08; 3: 5.44; 4: 6.42
